Taken from patent US20130203756A1.

target: human PDE10A2 (Homo sapiens); construct: cytosolic supernatant of the sonicated lysate used as enzyme; test: PDE10 inhibitory activity, IMAP fluorescence polarization (FP) assay; conditions: apparent inhibition constant, FAM-labeled cAMP 50 nM, room temperature, read-out: PDE10A Ki
pKi: −log10 of the molar value.
measurement-type: pKi

Known pKi results, listed for orientation:
INSERT INTO assay_data (compound, subject_of_test, reported_result) VALUES
  ('CC(CN1Cc2c(cccc2-c2ncco2)C1=O)c1cn2ccccc2n1 (stereo not drawn)', 'human PDE10A2 (Homo sapiens)', 8.24),
  ('O=C1c2cc(O)cc(Br)c2CN1CCc1ccc2ncccc2n1', 'human PDE10A2 (Homo sapiens)', 7.76);

[1] Cn1cc(-c2cccc3c2CN(CCc2ccc4ncccc4n2)C3=O)nn1
[2] Cn1cc(CNc2cc3c(c(-c4ncco4)n2)CN(CCc2cn4ccccc4n2)C3=O)cn1
[3] O=C1c2cccc(-n3cccn3)c2CN1CCc1ccc2ccccc2n1
[4] O=C1c2cccc(-c3ncco3)c2CN1CC1CC1c1cn2ccccc2n1 (stereo not drawn)
Order the entries by their reported pKi, beginning at the minimum. Please, when replying, give the labels in the order that was requested. 1, 2, 3, 4
(1: 7.30, 2: 7.95, 3: 9.34, 4: 9.85)

[1] O=C1c2cccc(-c3cscn3)c2CN1CCc1ccc2c(n1)CCCC2O (stereo not drawn)
[2] O=C1c2cccc(-n3cccn3)c2CN1CCc1ccc2ncccc2n1
[3] O=C1c2cccc(-c3ncco3)c2CN1CCc1ccc2c(n1)CCCC2
// ranking: key=pKi, reverse=True Please, when replying, give the labels in the order that was requested. 1, 3, 2
(1: 8.92, 3: 8.64, 2: 7.96)

---

target: human PDE10A2 (Homo sapiens, UniProt Q9Y233); construct: cytosolic supernatant of the sonicated lysate used as enzyme; test: PDE10 inhibitory activity, IMAP fluorescence polarization (FP) assay; conditions: apparent inhibition constant, FAM-labeled cAMP 50 nM, room temperature, read-out: PDE10A Ki
Sequence (Q9Y233 267-1055): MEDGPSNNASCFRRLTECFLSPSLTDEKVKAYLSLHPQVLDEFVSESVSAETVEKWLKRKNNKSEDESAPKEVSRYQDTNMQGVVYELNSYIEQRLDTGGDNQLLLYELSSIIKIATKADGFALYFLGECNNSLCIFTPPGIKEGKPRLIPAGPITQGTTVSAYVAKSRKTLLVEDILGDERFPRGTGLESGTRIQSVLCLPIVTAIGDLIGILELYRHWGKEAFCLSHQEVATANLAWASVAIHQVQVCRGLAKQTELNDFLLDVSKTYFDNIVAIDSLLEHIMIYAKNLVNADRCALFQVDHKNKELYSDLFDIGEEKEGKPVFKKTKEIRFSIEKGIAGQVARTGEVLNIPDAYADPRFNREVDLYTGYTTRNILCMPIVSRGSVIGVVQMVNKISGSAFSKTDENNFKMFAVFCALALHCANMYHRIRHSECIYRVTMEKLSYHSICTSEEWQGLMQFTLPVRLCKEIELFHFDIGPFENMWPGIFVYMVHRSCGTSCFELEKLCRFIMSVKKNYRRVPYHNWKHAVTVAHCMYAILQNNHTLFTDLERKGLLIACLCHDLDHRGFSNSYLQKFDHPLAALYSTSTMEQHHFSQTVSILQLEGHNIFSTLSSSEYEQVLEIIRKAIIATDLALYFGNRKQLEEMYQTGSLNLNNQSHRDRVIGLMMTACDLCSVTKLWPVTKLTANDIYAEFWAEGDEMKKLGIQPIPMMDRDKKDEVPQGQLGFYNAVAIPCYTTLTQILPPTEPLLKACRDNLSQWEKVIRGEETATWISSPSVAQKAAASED
measurement-type: Ki (nM)

INSERT INTO assay_data (molecule, reported_result) VALUES
  ('Cc1ccc([C@@H]2C[C@H]2CN2Cc3c(cccc3-n3cccn3)C2=O)nc1 (single isomer, unassigned) [Compound 1-54]', 0.86);

[P] Cc1ccc([C@@H]2C[C@H]2CN2Cc3c(cccc3-c3ncco3)C2=O)nc1 (single isomer, unassigned) [Compound 1-50]
[Q] COc1ccc(-n2c(CCN3Cc4c(OC(C)C)cccc4C3=O)nc3ccccc3c2=O)cc1 (single isomer, unassigned) [Compound B-7]
Param metric = Ki; output whichever of P , Q has the minimum value. To answer, give the label that identifies your chosen option. P
